A collection of compounds and their measured Remaining rate (%) 120 min
assay overview: Plasma stability test, dog plasma;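 note: parent compound left in dog plasma quantified by LC-MS with positive electrospray ionization, selected reaction monitoring and an internal standard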
Format: in vitro ADME
conditions: Dog plasma, 37°C, 120 min
experimental endpoint: Remaining rate (%) 120 min

INSERT INTO results (compound_structure, experimental_endpoint, result_unit, value) VALUES
  ('C#Cc1c(F)ccc2cc(O)cc(-c3nc4c5c(nc(OCC6(CN7CCC(=C(F)F)CC7)CC6)nc5c3F)N3C[C@H]5CC[C@H](N5)[C@H]3CO4)c12', 'Remaining rate (%) 120 min', '%', 93.99),
  ('C#Cc1c(F)ccc2cc(O)cc(-c3nc4c5c(nc(OCC6(CN7CCC(=CF)CC7)CC6)nc5c3F)N3C[C@H]5CC[C@H](N5)[C@H]3[C@H](C)O4)c12', 'Remaining rate (%) 120 min', '%', 110.22),
  ('[2H]C([2H])(Oc1nc2c3c(nc(-c4cc(O)cc5ccc(F)c(C#C)c45)c(F)c3n1)O[C@@H](C)[C@@H]1[C@@H]3CC[C@H](CN21)N3)C1(C([2H])([2H])N2CCC(=CF)CC2)CC1', 'Remaining rate (%) 120 min', '%', 99.65),
  ('C#Cc1c(F)ccc2cc(O)cc(-c3nc4c5c(nc(OCC6(CN7CCC(=C(F)F)CC7)CC6)nc5c3F)N3C[C@H]5CC[C@H](N5)[C@H]3[C@H](C)O4)c12', 'Remaining rate (%) 120 min', '%', 94.59),
  ('[2H]C([2H])([2H])[C@@H]1Oc2nc(-c3cc(O)cc4ccc(F)c(C#C)c34)c(F)c3nc(OCC4(CN5CCC(=CF)CC5)CC4)nc(c23)N2C[C@H]3CC[C@H](N3)[C@@H]12', 'Remaining rate (%) 120 min', '%', 91.42);

====

assay overview: Plasma stability test, mouse plasma;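 note: test compound quantified by LC-MS using positive-mode electrospray ionization and MRM scanning, with an internal standard added in acetonitrile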
Assay type: in vitro ADME
conditions: Mouse plasma, 37°C; read-out: t1/2 (converted)
Parameter: half-life. Scope: all listed entries.
experimental endpoint: half-life (h)

INSERT INTO results (molecule, result_unit, value) VALUES
  ('C#Cc1c(F)ccc2cc(O)cc(-c3nc4c5c(nc(OCC6(CN7CCC(=CF)CC7)CC6)nc5c3F)N3C[C@H]5CC[C@H](N5)[C@H]3[C@H](C)O4)c12 [Example 129]', 'h', 37.6),
  ('[2H]C([2H])(Oc1nc2c3c(nc(-c4cc(O)cc5ccc(F)c(C#C)c45)c(F)c3n1)O[C@@H](C)[C@@H]1[C@@H]3CC[C@H](CN21)N3)C1(C([2H])([2H])N2CCC(=CF)CC2)CC1 [Example 291]', 'h', 3.08),
  ('[2H]C([2H])([2H])[C@@H]1Oc2nc(-c3cc(O)cc4ccc(F)c(C#C)c34)c(F)c3nc(OCC4(CN5CCC(=CF)CC5)CC4)nc(c23)N2C[C@H]3CC[C@H](N3)[C@@H]12 [Example 164]', 'h', 149),
  ('C#Cc1c(F)ccc2cc(O)cc(-c3nc4c5c(nc(OCC6(CN7CCC(=C(F)F)CC7)CC6)nc5c3F)N3C[C@H]5CC[C@H](N5)[C@H]3CO4)c12 [Example 1-1]', 'h', 146),
  ('[2H]C([2H])([2H])[C@@H]1Oc2nc(-c3cc(O)cc4ccc(F)c(C#C)c34)c(F)c3nc(OCC4(CN5CCC(=C(F)F)CC5)CC4)nc(c23)N2C[C@H]3CC[C@H](N3)[C@@H]12 [Example 161]', 'h', 229),
  ('C#Cc1c(F)ccc2cc(O)cc(-c3nc4c5c(nc(OCC6(CN7CCC(=C(F)F)CC7)CC6)nc5c3F)N3C[C@H]5CC[C@H](N5)[C@H]3[C@H](C)O4)c12 [Example 19-1]', 'h', 27.4);

====

assay overview: Pharmacokinetic determination in mice (IV and PO, plasma, LCMS/MS)
Assay type: in vivo, Balb/c mice
conditions: mouse, in vivo, po, 30 mg/kg
experimental endpoint: Tmax (h)

INSERT INTO assay_data (compound, value) VALUES
  ('[2H]C([2H])([2H])[C@@H]1Oc2nc(-c3cc(O)cc4ccc(F)c(C#C)c34)c(F)c3nc(OCC4(CN5CCC(=C(F)F)CC5)CC4)nc(c23)N2C[C@H]3CC[C@H](N3)[C@@H]12 [Example 161]', 2);

====

assay overview: Pharmacokinetic determination in rats (IV and PO, plasma, LCMS/MS)
Type: in vivo, SD rats
conditions: rat, in vivo, iv, 1 mg/kg
experimental endpoint: C0

INSERT INTO results (compound_structure, experimental_endpoint, value) VALUES
  ('[2H]C([2H])([2H])[C@@H]1Oc2nc(-c3cc(O)cc4ccc(F)c(C#C)c34)c(F)c3nc(OCC4(CN5CCC(=C(F)F)CC5)CC4)nc(c23)N2C[C@H]3CC[C@H](N3)[C@@H]12', 'C0', '704 ng/mL');

====

assay overview: Plasma stability test, rat plasma
conditions: Rat plasma, 37°C, 60 min
experimental endpoint: Remaining rate (%) 60 min

INSERT INTO assay_data (molecule, experimental_endpoint, value) VALUES
  ('CC[C@H](C)C(=O)O[C@H]1C[C@@H](C)C=C2C=C[C@H](C)[C@H](CC[C@@H]3C[C@@H](O)CC(=O)O3)[C@H]21 [Lovastatin, lovastatin, reference compound]', 'Remaining rate (%) 60 min', '0.36%'),
  ('[2H]C([2H])(Oc1nc2c3c(nc(-c4cc(O)cc5ccc(F)c(C#C)c45)c(F)c3n1)O[C@@H](C)[C@@H]1[C@@H]3CC[C@H](CN21)N3)C1(C([2H])([2H])N2CCC(=CF)CC2)CC1', 'Remaining rate (%) 60 min', '103.48%'),
  ('[2H]C([2H])([2H])[C@@H]1Oc2nc(-c3cc(O)cc4ccc(F)c(C#C)c34)c(F)c3nc(OCC4(CN5CCC(=CF)CC5)CC4)nc(c23)N2C[C@H]3CC[C@H](N3)[C@@H]12', 'Remaining rate (%) 60 min', '97.21%');

====

assay overview: Pharmacokinetic determination in rats (IV and PO, plasma, LCMS/MS)
Assay type: in vivo, SD rats
conditions: male, SD, rat, in vivo, po, 30 mg/kg
experimental endpoint: Tmax (h)

INSERT INTO results (compound, experimental_endpoint, result_unit, value) VALUES
  ('C#Cc1c(F)ccc2cc(O)cc(-c3ncc4c(N5CC6CCC(C5)N6)nc(OC[C@@]56CCCN5C[C@H](F)C6)nc4c3F)c12 [MRTX-1133, reference compound]', 'Tmax', 'h', 2);

====

assay overview: Pharmacokinetic determination in rats (IV and PO, plasma, LCMS/MS)
Format: in vivo, SD rats
conditions: rat, in vivo, po, 30 mg/kg
experimental endpoint: Tmax (h)

INSERT INTO measurements (compound, value) VALUES
  ('[2H]C([2H])([2H])[C@@H]1Oc2nc(-c3cc(O)cc4ccc(F)c(C#C)c34)c(F)c3nc(OCC4(CN5CCC(=C(F)F)CC5)CC4)nc(c23)N2C[C@H]3CC[C@H](N3)[C@@H]12 [Example 161]', 6);

====

assay overview: Pharmacokinetic determination in rats (IV and PO, plasma, LCMS/MS)
Assay type: in vivo, SD rats
conditions: rat, in vivo; PO, 30 mg/kg, male SD rats, overnight fasting, plasma; read-out: T1/2 (converted)
Classes by half-life: low = under 6 h, medium = from 6 h up to 8 h, high = 8 h and over

INSERT INTO results (compound, classification) VALUES
  ('[2H]C([2H])([2H])[C@@H]1Oc2nc(-c3cc(O)cc4ccc(F)c(C#C)c34)c(F)c3nc(OCC4(CN5CCC(=CF)CC5)CC4)nc(c23)N2C[C@H]3CC[C@H](N3)[C@@H]12 [Example 164]', 'high'),
  ('C#Cc1c(F)ccc2cc(O)cc(-c3nc4c5c(nc(OCC6(CN7CCC(=C(F)F)CC7)CC6)nc5c3F)N3C[C@H]5CC[C@H](N5)[C@H]3[C@H](CC)O4)c12 [Example 124]', 'medium'),
  ('[2H]C([2H])([2H])C1Oc2nc(-c3cc(O)cc4ccc(F)c(C#C)c34)c(F)c3nc(OCC4(CN5CCC(=CF)CC5C)CC4)nc(c23)N2CC3CCC(N3)C12 (centres unmarked) [Example 286]', 'high'),
  ('CON=C1CCN(CC2(COc3nc4c5c(nc(-c6cc(N)cc(Cl)c6C(F)(F)F)c(F)c5n3)O[C@@H](C)[C@@H]3[C@@H]5CC[C@H](CN43)N5)CC2)CC1 [Example 337]', 'low'),
  ('[2H]C([2H])(Oc1nc2c3c(nc(-c4cc(O)cc5ccc(F)c(C#C)c45)c(F)c3n1)O[C@@H](C)[C@@H]1[C@@H]3CC[C@H](CN21)N3)C1(C([2H])([2H])N2CCC(=C(F)F)CC2)CC1 [Example 289]', 'medium'),
  ('C#Cc1c(F)ccc2cc(O)cc(-c3nc4c5c(nc(OCC6(CN7CC8CC(=C(F)F)CC8C7)CC6)nc5c3F)N3C[C@H]5CC[C@H](N5)[C@H]3[C@H](C)O4)c12 (some centres unmarked) [Example 133]', 'medium'),
  ('C#Cc1c(F)ccc2cc(O)cc(-c3nc4c5c(nc(OCC6(CN7CCC(=CF)CC7)CC6)nc5c3F)N3C[C@H]5CC[C@H](N5)[C@H]3[C@H](CC)O4)c12 [Example 137]', 'medium'),
  ('C#Cc1c(F)ccc2cc(O)cc(-c3nc4c5c(nc(OCC6(CN7CC8CC(=C(F)F)CC8C7)CC6)nc5c3F)N3C[C@H]5CC[C@H](N5)[C@H]3[C@H](CC)O4)c12 (some centres unmarked) [Example 141]', 'high'),
  ('C#Cc1c(F)ccc2cc(O)cc(-c3nc4c5c(nc(OCC6(CN7CCC(=C(F)F)CC7)CC6)nc5c3F)N3C[C@H]5CC[C@H](N5)[C@H]3CO4)c12 [Example 1-1]', 'low'),
  ('[2H]C([2H])([2H])[C@@H]1Oc2nc(-c3cc(N)cc(Cl)c3C(F)(F)F)c(F)c3nc(OCC4(CN5CCC(=NOC)CC5)CC4)nc(c23)N2C[C@H]3CC[C@H](N3)[C@@H]12 [Example 339]', 'low');
